Assay: Solubility in Cl-free phosphate buffer (0.067 M), pH 6.8
Type: physicochemical
Settings: pH 6.8, aqueous buffer

compound	solubility
COC(=O)N1CC[C@@H]2[C@H]1CCC[C@@]2(O)C#Cc1cccc(Cl)c1 [Example 1]	103 µg/mL
COC(=O)N1CC[C@@H]2[C@H]1CCC[C@@]2(O)C#Cc1csc(C)n1 [Example 7]	> 300 µg/mL
COC(=O)N1CC[C@@H]2[C@H]1CCC[C@@]2(O)C#Cc1ccnc(Cl)c1 [Example 5]	175 µg/mL
CCOC(=O)N1CC[C@@H]2[C@H]1CCC[C@@]2(N)C#Cc1cccc(C)c1 [Example 9]	> 300 µg/mL
COC(=O)N1CC[C@@H]2[C@H]1CCC[C@@]2(O)C#Cc1cc(C)ccn1 [Example 6]	153 µg/mL
COC(=O)N1CC[C@@H]2[C@H]1CCC[C@@]2(O)C#Cc1cncc(C)c1 [Example 2]	> 300 µg/mL
COC(=O)N1CC[C@@H]2[C@H]1CCC[C@@]2(N)C#Cc1cccc(C)c1 [Example 8]	> 300 µg/mL
COC(=O)N1CC[C@@H]2[C@H]1CCC[C@@]2(O)C#Cc1ccnc(C)c1 [Example 3]	> 300 µg/mL

* * *

Biological target: human mGluR5a receptors (Homo sapiens, UniProt P41594)
Sequence (P41594 21-1180 isoform P41594-2 limits assumed): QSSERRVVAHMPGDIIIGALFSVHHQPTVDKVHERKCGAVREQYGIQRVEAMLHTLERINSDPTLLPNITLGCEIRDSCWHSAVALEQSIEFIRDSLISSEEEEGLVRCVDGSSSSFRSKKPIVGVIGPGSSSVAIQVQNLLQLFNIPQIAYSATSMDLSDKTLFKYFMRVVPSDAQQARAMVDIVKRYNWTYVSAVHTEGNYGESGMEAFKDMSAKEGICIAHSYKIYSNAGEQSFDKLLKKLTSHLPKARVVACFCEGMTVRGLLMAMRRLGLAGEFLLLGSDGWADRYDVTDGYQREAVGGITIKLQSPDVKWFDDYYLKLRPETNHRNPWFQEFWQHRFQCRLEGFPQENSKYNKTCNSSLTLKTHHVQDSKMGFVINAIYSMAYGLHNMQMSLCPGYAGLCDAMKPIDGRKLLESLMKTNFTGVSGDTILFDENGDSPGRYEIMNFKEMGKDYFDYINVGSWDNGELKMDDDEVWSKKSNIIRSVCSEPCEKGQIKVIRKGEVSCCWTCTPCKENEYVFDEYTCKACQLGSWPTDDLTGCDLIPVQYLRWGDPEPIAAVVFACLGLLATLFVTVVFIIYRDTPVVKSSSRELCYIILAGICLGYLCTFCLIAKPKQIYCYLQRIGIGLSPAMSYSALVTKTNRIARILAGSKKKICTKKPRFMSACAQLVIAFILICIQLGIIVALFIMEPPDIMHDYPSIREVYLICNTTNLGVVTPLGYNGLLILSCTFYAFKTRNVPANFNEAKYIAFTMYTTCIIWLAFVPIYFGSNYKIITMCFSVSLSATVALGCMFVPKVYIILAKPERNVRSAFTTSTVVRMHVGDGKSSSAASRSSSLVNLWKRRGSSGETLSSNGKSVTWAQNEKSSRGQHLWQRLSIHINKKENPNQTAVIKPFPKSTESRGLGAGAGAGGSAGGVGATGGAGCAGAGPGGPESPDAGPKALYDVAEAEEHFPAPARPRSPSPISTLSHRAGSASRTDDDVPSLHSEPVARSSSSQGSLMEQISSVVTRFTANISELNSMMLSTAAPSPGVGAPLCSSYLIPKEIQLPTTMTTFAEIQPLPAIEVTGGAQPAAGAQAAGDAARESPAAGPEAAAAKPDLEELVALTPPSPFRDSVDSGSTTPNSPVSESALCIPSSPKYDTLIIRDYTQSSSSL
Test: Inhibition of glutamate-induced elevation of intracellular calcium concentration in L(tk-) cells expressing human mGluR5a receptors
Settings: agonist glutamate
As shown below, each of these compounds has a reported log10 IC50 value.
assay-readout: log10 IC50 (log10 of the value in nM)

entry-smiles	log10 IC50
COC(=O)N1CC[C@@H]2[C@H]1CCC[C@@]2(O)C#Cc1ccnc(Cl)c1	2.16
COC(=O)N1CC[C@@H]2[C@H]1CCC[C@@]2(O)C#Cc1cncc(C)c1	3.04
COC(=O)N1CC[C@@H]2[C@H]1CCC[C@@]2(O)C#Cc1cccc(Cl)c1	1.20
COC(=O)N1CC[C@@H]2[C@H]1CCC[C@@]2(O)C#Cc1ccnc(C)c1	2.72
COC(=O)N1CC[C@@H]2[C@H]1CCC[C@@]2(O)C#Cc1cc(C)ccn1	2.87
COC(=O)N1CC[C@@H]2[C@H]1CCC[C@@]2(N)C#Cc1cccc(C)c1	2.52
CCOC(=O)N1CC[C@@H]2[C@H]1CCC[C@@]2(N)C#Cc1cccc(C)c1	2.85
COC(=O)N1CC[C@@H]2[C@H]1CCC[C@@]2(O)C#Cc1cccc(C)n1	3.16
COC(=O)N1CC[C@@H]2[C@H]1CCC[C@@]2(O)C#Cc1csc(C)n1	2.67
